Hello, the source for this data is patent US11332470B2, in case you need it.

Provide the recorded Papp B→A at 90 min, 10 μM for the entries that follow.
Assay: in vitro
Settings: human, Caco-2, pH 7.4

Exam item: Please report the recorded Papp B→A at 90 min, 10 μM for CN1CC=C(c2c(CN3CCCC3c3ccccn3)nc3ccccn23)CC1 (centres unmarked) .
Marked response: > 30 ×10⁻⁶ cm/s

Exam item: Record request: Papp B→A at 90 min, 10 μM value, item O=C1CN(c2c(CN3CCCC3c3ccccn3)nc3ccccn23)CCN1 (centres unmarked)
Marked response: 10 to 30 ×10⁻⁶ cm/s

Exam item: Returns the measured Papp B→A at 90 min, 10 μM for the input compound. Input: Cc1cccnc1CN1CCCC1c1cn2c(N3CCN(C)CC3)cccc2n1 (centres unmarked)
Marked response: > 30 ×10⁻⁶ cm/s

Exam item: Papp B→A at 90 min, 10 μM lookup needed for CN1CCN(c2cccc3nc(CN4CCCC4c4nccs4)[nH]c23)CC1 (centres unmarked) , thanks.
Marked response: 10 to 30 ×10⁻⁶ cm/s

Exam item: So what does the record say about Papp B→A at 90 min, 10 μM for c1ccc(OCc2c(CN3CCCC3c3ccccn3)nc3ccccn23)nc1 (centres unmarked) ?
Marked response: > 30 ×10⁻⁶ cm/s

Exam item: Papp B→A at 90 min, 10 μM for Cc1cccnc1C1CCCN1Cc1nccn1Cc1cccnc1 (centres unmarked) ?
Marked response: 10 to 30 ×10⁻⁶ cm/s

Exam item: # input compound: Cc1cccnc1C1CCCN1Cc1nc2cccc(N3CCN4CCCC4C3)c2[nH]1 (centres unmarked) ; wanted: its Papp B→A at 90 min, 10 μM
Marked response: 10 to 30 ×10⁻⁶ cm/s

Exam item: Could you share which Papp B→A at 90 min, 10 μM value was measured for Cc1cccnc1C1CCCCN1Cc1ccccc1-n1cccn1 (centres unmarked) ?
Marked response: > 30 ×10⁻⁶ cm/s
